Consider the following compounds; for each one, report its growth inhibition.
# METHOD_SUMMARY: NCI Yeast Anticancer Drug Screen. Data for the bub3 strain (AID 167)
# MEASUREMENT_PARAMETERS: S. cerevisiae bub3 mutant strain, at 50.0 µM, stronger effect = higher value
This is part of a sample that, as a whole, favours compounds with a hit. Of some 79,000 tested, about 15% had one in any assay. Activity calls are given as the source filed them. No stated cut-off is given here; in the data, active means growth inhibition above about 70%; inactive means the rest. Where a SMILES comes first, the peptide text is derived from it. [ ]: non-standard residue; d: D form. ξ: configuration not given here. ξPhe(4-N(CH2CH2Cl)2) = NC(Cc1ccc(N(CCCl)CCCl)cc1)C(=O)O

Need growth inhibition of COc1ccc(OP2OCC(C)O2)cc1 (configuration not stated) , thanks. -2.6% (inactive)

Need growth inhibition of [CH3][Sb]1([Br])[CH2]CC[CH2]1 , thanks. -11.8% (inactive)

Need growth inhibition of CC(C)(C)NCC(COc1ccc([N+](=O)[O-])cc1)OP(c1ccccc1)c1ccccc1 (configuration not stated) , thanks. 14.8% (inactive)

Need growth inhibition of O=Cc1ccccc1O.O=Cc1ccccc1O.[Cu] , thanks. 70.2% (active)

Need growth inhibition of CCOP(=O)(OCC)Oc1c(Cl)c(Cl)c(O)c(Cl)c1Cl , thanks. 6.4% (inactive)

Need growth inhibition of CN(C)c1ccc([N+](=O)[O-])c([N+](=O)[O-])c1 , thanks. -12.4% (inactive)

Need growth inhibition of [Cl][Rh]([Cl])([Cl])[Cl].[NH-]CC[NH-] , thanks. -9.95% (inactive)

Need growth inhibition of CC(=O)O[C@H]1CC[C@@]2(C)[C@H](CC[C@@H]3[C@@H]2CC[C@]2(C)[C@@H](c4ccc(=O)oc4)C[C@H]4O[C@]342)C1 , thanks. 8.45% (inactive)

Need growth inhibition of O=C1NC(=S)NC(=O)C1=Cc1cc2c(cc1[N+](=O)[O-])OCO2 , thanks. 7.95% (inactive)

Need growth inhibition of CC(C)c1cc2c(cc1O)C1(C)CCCC(C)(C)C1=CC2=O (configuration not stated) , thanks. -5.8% (inactive)

Need growth inhibition of O=C1/C(=C\c2ccccc2)C2OCC=C3CN4CCC56c7ccccc7N1C5C2C3CC46 (configuration not stated) , thanks. -19.9% (inactive)

Need growth inhibition of CCOC(=O)C(Cc1ccc(N(CCCl)CCCl)cc1)NC(=O)C(Cc1ccccc1)NC(=O)C(NC(=O)CNC(=O)C1CCCN1)C(C)C (configuration not stated) (H-PGVF[ξPhe(4-N(CH2CH2Cl)2)]-OEt; configuration not given here) , thanks. 6.1% (inactive)

Need growth inhibition of CN(C)[C@@H]1C(=O)C(C(N)=O)=C(O)[C@@]2(O)C(=O)C3=C(O)c4c(O)ccc(Cl)c4[C@@](C)(O)[C@H]3C[C@@H]12 , thanks. -8.8% (inactive)

Need growth inhibition of CCOP(=O)(OCC)/C(C#N)=C/c1nccn1C , thanks. 24.1% (inactive)

Need growth inhibition of O=C(Sc1c[nH]c(=O)[nH]c1=O)c1ccc(N(CCCl)CCCl)cc1 , thanks. -6.3% (inactive)

Need growth inhibition of O=C1C=CC(=O)N1c1ccccc1Cl (tested in a mixture with another compound) , thanks. 21.2% (inactive)

Need growth inhibition of NNc1ccc([N+](=O)[O-])cc1 , thanks. 54.9% (inactive)

Need growth inhibition of CCCCCCCBr , thanks. -5.45% (inactive)

Need growth inhibition of CCOP(=O)(CC(=O)C1CC1)OCC , thanks. -20.9% (inactive)

Need growth inhibition of CC(C)c1cccc(C(C)C)c1O , thanks. 10.9% (inactive)

Need growth inhibition of Oc1cccc(Cl)c1 , thanks. -2.45% (inactive)

Need growth inhibition of CCN(CC)CCc1ccncc1 , thanks. -5.05% (inactive)

Values from PubChem BioAssay (NCI)
